- Target or system: CIB1 and αIIb interaction (CIB1-GST : F-αIIb peptide) (Homo sapiens, UniProt Q99828)
- Construct: made in house; host or cells: BL-21 plus RIL cells (E. coli)
- Experiment: FP assay, 1536-well qHTS format (primary and confirmatory screen)
- Type: binding
- Measurement parameters: qHTS primary screen hits, Table S2; negative = inhibition
Efficacy (%) overview
Note to self: number, then unit, no commentary.

Record excerpt, results attached:
Chem smiles | Efficacy (%)
COc1cccc(-n2c(SCc3cc(=O)oc4cc(O)c(O)cc34)nc3ccccc3c2=O)c1.O=C(O)C(F)(F)F | -34%
CSc1ccc(/C=C2/C(C)=C(CC(=O)O)c3cc(F)ccc32)cc1 | -32%
Cc1ccc(S(=O)(=O)Nc2cnccc2C(=O)Nc2cccc3ccccc23)cc1.O=C(O)C(F)(F)F | -32%

// moving on: another record for Efficacy (%)
Ask: Query Efficacy (%) on CIB1 and αIIb interaction (CIB1-GST : F-αIIb peptide) (Homo sapiens, UniProt Q99828) for Cc1ccc(O)c2ncccc12
Result: -50%

---

Efficacy (%) overview
- Target or system: CIB1 and αIIb interaction (CIB1-GST : F-αIIb peptide) (Homo sapiens, UniProt Q99828)
- Construct: made in house; host or cells: BL-21 plus RIL cells (E. coli)
- Sequence (Q99828 1-191): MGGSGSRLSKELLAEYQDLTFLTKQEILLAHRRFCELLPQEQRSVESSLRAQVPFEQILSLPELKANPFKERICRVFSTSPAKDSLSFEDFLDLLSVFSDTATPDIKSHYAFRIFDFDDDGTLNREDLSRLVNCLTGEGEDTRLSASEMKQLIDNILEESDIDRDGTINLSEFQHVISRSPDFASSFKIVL
- Experiment: FP assay, 1536-well qHTS format (primary and confirmatory screen)
- Assay type: binding
- Measurement parameters: qHTS primary screen hits, Table S2; negative = inhibition
Note to self: number, then unit, no commentary.

Molecule | Target or system | Efficacy (%)
COc1ccccc1N1CCNCC1.Cl [NCGC00015906-04] | CIB1 and αIIb interaction (CIB1-GST : F-αIIb peptide) (Homo sapiens, UniProt Q99828) | -80%
CCc1ccc(S(=O)(=O)Nc2cnccc2C(=O)Nc2nc(-c3ccccc3)cs2)cc1.O=C(O)C(F)(F)F [NCGC00344909-01] | CIB1 and αIIb interaction (CIB1-GST : F-αIIb peptide) (Homo sapiens, UniProt Q99828) | -57%
CN1CCC(N(Cc2cccs2)c2ccccc2)CC1 [NCGC00183847-01] | CIB1 and αIIb interaction (CIB1-GST : F-αIIb peptide) (Homo sapiens, UniProt Q99828) | -43%

Ask: What does the data say about its Efficacy (%)? Entry: N#CCc1cc(-c2ccc(F)c(F)c2)nn1-c1nc(C(=O)O)cs1.O=C(O)C(F)(F)F [NCGC00356771-02]
Result: -16%

---

- Target or system: GST-CIB1 : F-scrambled peptide (Homo sapiens, UniProt Q99828)
- Construct: made in house; host or cells: BL-21 plus RIL cells (E. coli)
- Sequence (Q99828 1-191): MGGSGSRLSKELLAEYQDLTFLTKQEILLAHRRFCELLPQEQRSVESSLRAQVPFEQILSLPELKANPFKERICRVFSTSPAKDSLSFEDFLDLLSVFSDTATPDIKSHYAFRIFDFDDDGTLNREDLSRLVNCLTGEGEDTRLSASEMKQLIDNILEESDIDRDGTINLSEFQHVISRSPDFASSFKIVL
- Experiment: FP scrambled-peptide counter screen, 1536-well format
- Type: binding
- Measurement parameters: Table S3, counterscreen; negative = inhibition
Efficacy (%) (counterscreen) overview
Please reply with the bare figure in % and do not write the unit itself.

Record excerpt, results attached:
Compound | Units of measure | Efficacy (%) (counterscreen)
COC(=O)c1cc(Cl)ccc1NS(=O)(=O)C(F)(F)F [NCGC00249937-01] | % | -16
CC(C)Oc1cccc(NC(=O)c2ccccc2C(F)(F)F)c1 [NCGC00160537-04] | % | -39
CC(=O)[O][Hg][c]1ccccc1 [NCGC00091050-09] | % | 145
N#Cc1ccc(NS(=O)(=O)c2ccc(NC(=O)Cc3ccc(Cl)c(Cl)c3)cc2)cc1.O=C(O)C(F)(F)F [NCGC00253445-01] | % | 202
Cc1c(Cc2ccc3ccccc3n2)c2cc(F)ccc2n1CC(=O)O [NCGC00386286-04] | % | -123

Ask: What does the data say about its Efficacy (%) (counterscreen)? Entry: O=C(O)C(F)(F)F.O=S(=O)(NCc1nccs1)c1ccc(Nc2nc(-c3ccccc3)cs2)cc1 [NCGC00262383-01]
Result: -83

Ask: O=C1OC(c2ccc(O)c(S(=O)(=O)[O-])c2)(c2ccc(O)c(S(=O)(=O)[O-])c2)c2c(Br)c(Br)c(Br)c(Br)c21.[Na+].[Na+] [NCGC00159391-03] ?
Result: 31

Ask: CC(=O)Nc1sc2c(c1-c1nc3ccccc3o1)CCN(C(C)C)C2.O=C(O)C(F)(F)F [NCGC00184832-01] ?
Result: -55

Ask: Cc1cc(C(C#N)c2ccc(Cl)cc2)c(Cl)cc1NC(=O)c1cc(I)cc(I)c1O (centres unmarked) [NCGC00166312-02] ?
Result: 117

Ask: C[C@@H]1CC[C@]2(C)C3(C)CC[C@@]2(OC3=O)[C@@]12C[C@H](c1ccoc1)OC2=O [NCGC00180662-03] ?
Result: -44

Ask: C/C(=C\c1ccc2c(c1)OCO2)C1Nc2cccc3cccc(c23)N1 [NCGC00182904-03] ?
Result: -77

Ask: CCc1ccc(NC(=O)C(=O)NNC(=O)c2cccs2)cc1.O=C(O)C(F)(F)F [NCGC00244112-01] ?
Result: 71

Ask: O=C(O)c1ccccc1SC1=NS(=O)(=O)c2ccccc21 [NCGC00188636-02] ?
Result: 0

Ask: O=C1c2cccc(O)c2C(=O)c2c(O)cc(CO)cc21 [NCGC00163510-03] ?
Result: -8

Ask: O=C(c1cc(O)c(O)c(O)c1)c1ccc(O)c(O)c1O [NCGC00249050-02] ?
Result: -99

Ask: O=C(O)C(F)(F)F.O=C1CCCC2=C1C(c1ncccc1C(F)(F)F)N=C(Nc1nc3ccccc3o1)N2 (centres unmarked) [NCGC00189070-01] ?
Result: -41

Ask: Cc1ccc(S(=O)(=O)Nc2ccc(Br)cc2C(=O)Nc2nc(-c3ccccc3)cs2)cc1.O=C(O)C(F)(F)F [NCGC00262989-01] ?
Result: 243

Ask: C=C1C(=O)OC2C(OC(=O)C=C(C)C)C(C)=C3C(=O)C=C(C)C3C(O)C12 (centres unmarked) [NCGC00380563-01] ?
Result: -47

Ask: O=C(NCCCN1CCNCC1)c1cccc(-c2cc(O)c3ncccc3c2)c1.O=C(O)C(F)(F)F [NCGC00244531-01] ?
Result: -52

Ask: O=C(N/N=C1\C(=O)N(CCc2ccccc2)c2ccccc21)c1cccnc1 [NCGC00420788-01] ?
Result: -65

Ask: COc1ccccc1Nc1cc2ccccc2c(O)n1 [NCGC00183215-01] ?
Result: -136

Ask: CN1CCc2ccc3c4c2[C@]1(C)Cc1cccc(c1-4)OCO3 [NCGC00168048-01] ?
Result: -136

Ask: CN(C(=O)c1cccs1)c1cccnc1.O=C(O)C(F)(F)F [NCGC00241518-01] ?
Result: -118

Ask: O=C(O)C(F)(F)F.O=C1Nc2ccccc2/C1=N/NC(=S)NCc1ccccc1 [NCGC00229543-01] ?
Result: -27

---

- Target or system: CIB1 and αIIb interaction (CIB1-GST : F-αIIb peptide) (Homo sapiens)
- Construct: made in house; host or cells: BL-21 plus RIL cells (E. coli)
- Experiment: FP assay, 1536-well qHTS format (primary and confirmatory screen)
- Assay type: binding
- Measurement parameters: qHTS primary screen hits, Table S2; negative = inhibition
Reported metric: Efficacy (%)
Note to self: number, then unit, no commentary.

Record excerpt, results attached:
Compound | Efficacy (%)
O=C(O)C(F)(F)F.O=C1CCCC2=C1C1(CCCCC1)N=C(Nc1nc3ccccc3o1)N2 | -23%
CCOc1ccc(CCNC(=O)c2ccc(N3N=C(C)CC3=O)cc2)cc1OCC.O=C(O)C(F)(F)F | -42%
COc1cc(C=C2C(=O)Nc3ccccc32)cc(OC)c1O | -53%
NC(=O)N/N=C/c1ccc([N+](=O)[O-])o1 | -26%
CCC(=O)NC(c1ccco1)c1cc(Br)c2cccnc2c1O (stereo not drawn) | -28%

// moving on: another record for Efficacy (%)
Ask: What does the data say about its Efficacy (%)? Entry: Cc1ccc(C(=O)Nc2ccc(S(=O)(=O)O)c3cc(S(=O)(=O)O)cc(S(=O)(=O)O)c23)cc1NC(=O)c1cccc(NC(=O)Nc2cccc(C(=O)Nc3cc(C(=O)Nc4ccc(S(=O)(=O)O)c5cc(S(=O)(=O)O)cc(S(=O)(=O)O)c45)ccc3C)c2)c1
Result: -22%
